System: PC-3 prostate
test_name: NCI tumour cell line growth inhibition, 48 h; in the data active = GI50 below about 0.43 µM; inactive = the rest
A correct response names exactly one class from 1 (active), 0 (inactive)

Q: Please share the test call associated with `C[C@H]1[C@H](C)CC[C@]2(C(=O)NCCNCCN)CC[C@]3(C)C(=CC[C@@H]4[C@@]5(C)CCC(=O)C(C)(C)[C@@H]5CC[C@]43C)[C@H]12` .
A: 0

Q: Please share the test call associated with `Cn1c([N+](=O)[O-])cnc1/C=C1\Oc2cc(Cl)ccc2C1=O` .
A: 0

Q: Please share the test call associated with `c1ccc(Cn2cnc3ccc(-c4nc(-c5ccc6c(c5)ncn6C5CCCCC5)cn5ccnc45)cc32)cc1` .
A: 0

Q: Please share the test call associated with `Cn1cc(-c2csc(-c3cn(C)c4ccccc34)n2)c2cnccc21` .
A: 0

Q: Please share the test call associated with `COCCOCCOCc1n(Cc2ccc3ccccc3n2)c2ccccc2[n+]1Cc1ccc2ccccc2c1` .
A: 1

Q: Please share the test call associated with `Cn1c2ccccc2c2c(=O)c3ccccc3[nH]c21` .
A: 0

Q: Please share the test call associated with `Cn1c(/C(C#N)=C/c2ccc3ccccc3c2)cc2ccccc21` .
A: 1

Q: Please share the test call associated with `CN(C)Cc1c[nH]c2c(NCCN)c3c(c(NCCN)c12)C(=O)c1ccccc1C3=O` .
A: 0

Q: Please share the test call associated with `CCC(=C(c1ccc(OCCCN(C)C)cc1)c1ccc(OCCCN(C)C)cc1)c1ccc(Cl)cc1` .
A: 0
